assay: Inhibitory activity expressed as the concentration required to inhibit platelet-activating factor (PAF) induced maximum aggregation by 50%
READOUT KIND: IC50 (nM)

Some solved entries appear below for comparison.
CCCCCCCCCCCCCCCCOCC1COC(COC(=O)N(Cc2cccc[n+]2CC)C(C)=O)C1 (stereo not given); 18
CCCCCCCCCCCCCCCCCCOCC1COC(COC(=O)NCc2cc[n+](CC)cc2)C1 (stereo not given); 8000

[A] CCCCCCCCCCCCCCCCCC1OCC(COCCCCCC[N+](C)(C)C)O1 (stereo not given)
[B] CCCCCCCCCCCCCCCCOCC1COC(COC(=O)CCCCC[n+]2ccsc2)C1 (stereo not given)
[C] CCCCCCCCCCCCOCC1COC(COCCCCCCC[n+]2ccsc2)C1 (stereo not given)
[D] CCCCCCCCCCCCCCOCC1COC(COC(=O)N(Cc2cccc[n+]2CC)C(C)=O)O1 (stereo not given)
Asked: // ascending sort on recorded IC50 Provide your answer as the labels ordered per the instruction.
Given back: D, C, A, B

[P] CCCCCCCCCCCCCCC1COC(COCCCCCC[n+]2cccc3ccccc32)C1 (stereo not given)
[Q] CCCCCCCCCCCCCCCCCCOCC1CC(COCCCCCCC[n+]2ccsc2)CO1 (stereo not given)
Asked: Of the two listed items, P and Q , which carries the larger IC50 figure? Use the label to indicate which entry you chose.
Given back: Q
(Q: 3900 nM, P: 1900 nM)

[A] CCCCCCCCCCCCCCCCCCOCC1COC(COC(=O)N(Cc2cccc[n+]2CC)C(C)=O)C1 (stereo not given)
[B] CCCCCCCCCCCCCC1OCC(COC(=O)CCCCC[n+]2ccsc2)O1 (stereo not given)
Asked: Could you tell me which of these two has the smaller IC50 figure? First: A Second: B // respond with label for picked entry
Given back: A
(A: 52 nM, B: 20000 nM)

----------
experiment: Inhibitory activity expressed as the concentration required to inhibit platelet-activating factor (PAF) induced maximum aggregation by 50%
READOUT KIND: IC50 (nM)

Example cases with answers are listed next.
CCCCCCCCCCCCCCCC1CCC(COC(=O)N(Cc2cccc[n+]2CC)C(C)=O)O1 (stereo not drawn); 80
CCCCCCCCCCCCCCCCCC1OCC(COCCCCCC[n+]2ccsc2)O1 (stereo not drawn); 1400
CCCCCCCCCCCCCCCCCCOCC1COC(COC(=O)N(Cc2cc[n+](CC)cc2)C(C)=O)C1 (stereo not drawn); 1600
CCCCCCCCCCCCCCCCOCC1COC(COC(=O)N(Cc2ccccn2)C(C)=O)C1 (stereo not drawn); 11000
CCCCCCCCCCCCCCC1COC(COCCCCCC[N+](C)(C)C)C1 (stereo not drawn); 8200
CCCCCCCCCCCCCCCCCCOCC1CC(COC(=O)CCCCC[n+]2ccsc2)CO1 (stereo not drawn); 1500
CCCCCCCCCCCCCCCCOCC1COC(COC(=O)N(C(C)=O)c2cc[n+](CC)cc2)C1 (stereo not drawn); 860
CCCCCCCCCCCCCCOCC1COC(COCCCCCCC[n+]2ccsc2)C1 (stereo not drawn); 1700
CCCCCCCCCCCCCCCCCC1COC(COC(=O)N(Cc2cccc[n+]2CC)C(C)=O)O1 (stereo not drawn); 24
CCCCCCCCCCCCCCC1COC(COCCCCCCC[n+]2ccsc2)C1 (stereo not drawn); 830

[1] CCCCCCCCCCCCCCCCOCC1CCC(COC(=O)N(Cc2cccc[n+]2CC)C(C)=O)O1 (stereo not drawn)
[2] CCCCCCCCCCCCCCCC1CCC(COCCCCCC[n+]2ccsc2)O1 (stereo not drawn)
Asked: Field: entry with larger IC50 (options 1 / 2 ). Reply with the label of the item you choose.
Given back: 2
(2: 1300 nM, 1: 99 nM)
